System: MDR1
Experiment: in vitro
Conditions: dog, MDCK-MDR1, pH 7.4, MDCK-MDR1: Papp B-A (10^−6, cm/s)
metric-name: Papp B→A at 120 min, 5 μM (nm/s)
Form entry: value (nm/s) — number only.

Memo: COc1cc(-c2ccc(-c3cnc(N(C)[C@@H]4CC5COC[C@H](N5)[C@@H]4F)cn3)c(O)c2)ccn1 (single isomer, unassigned) , reported Papp B→A at 120 min, 5 μM: 30.8

Memo: COc1cc(-c2ccc(-c3cnc(N(C)[C@@H]4CC5CC(F)(F)[C@@H](C4)N5)cn3)c(O)c2)cnn1 (single isomer, unassigned) , reported Papp B→A at 120 min, 5 μM: 472

Memo: CN(c1cnc(-c2ccc(-c3nnco3)cc2O)cn1)[C@H]1C[C@@H]2CCC(N2)[C@H]1F (single isomer, unassigned) , reported Papp B→A at 120 min, 5 μM: 308

Memo: Cn1cnc(-c2ccc(-c3cnc(N(C4CC4)[C@@H]4CC5CC[C@H](N5)[C@@H]4F)cn3)c(O)c2)cc1=O (single isomer, unassigned) , reported Papp B→A at 120 min, 5 μM: 644

Memo: CN(c1cnc(-c2ccc(-c3cc[nH]c(=O)c3)cc2O)cn1)[C@@H]1CC2COC[C@H](N2)[C@@H]1F (single isomer, unassigned) , reported Papp B→A at 120 min, 5 μM: 392

Memo: `CN(c1cnc(-c2cc(F)c(-c3cnn(C)c3)cc2O)cn1)[C@@H]1C[C@@]2(C)CC[C@](C)(N2)[C@@H]1F` , reported Papp B→A at 120 min, 5 μM: 221

Memo: COc1cc(-c2ccc(-c3cnc(N(C4CC4)[C@H]4C[C@@H]5CCC(N5)[C@H]4F)cn3)c(O)c2)ncn1 (single isomer, unassigned) , reported Papp B→A at 120 min, 5 μM: 45.5
